# Method summary: Plasma kinetics after single oral administration in SD rats (LC-MS/MS)
# Format: in vivo, rat
# Conditions: male, SD, rat, single oral 10 mg/kg, plasma, n = 8
Recorded endpoint: Tmax
A complete answer gives the number and then names the unit.

Q. What Tmax value was documented for this molecule, `CC1(C)CC(=O)C2=C(C1)NC1=C(C(=O)CC(C)(C)C1)C2c1ccc(OCc2ccc(C(=O)O)cc2)c(Br)c1` ?
A. 30 min

---

# Target of assay: HEK-293T cells stably overexpressing GPR40 (Homo sapiens, UniProt O14842)
# Sequence (O14842 whole entry): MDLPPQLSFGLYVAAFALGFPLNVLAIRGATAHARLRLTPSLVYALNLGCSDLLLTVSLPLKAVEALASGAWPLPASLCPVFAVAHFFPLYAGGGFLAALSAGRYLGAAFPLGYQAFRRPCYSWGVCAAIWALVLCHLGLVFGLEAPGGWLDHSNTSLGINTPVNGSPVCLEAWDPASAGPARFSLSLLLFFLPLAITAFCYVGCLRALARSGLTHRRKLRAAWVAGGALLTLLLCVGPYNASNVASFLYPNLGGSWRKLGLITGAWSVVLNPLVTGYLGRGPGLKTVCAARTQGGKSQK
# Method summary: GPR40 agonistic activity assay (Fluo-4 AM fluorescence, Flexstation)
# Conditions: GPR40 agonism, n = 6
Recorded endpoint: pEC50
Kindly note that pEC50 refers to -log10 of the concentration in mol/L and answer with the value alone.

Q. What pEC50 value was documented for this molecule, `CC1(C)CC(=O)C2=C(C1)NC1=C(C(=O)CC(C)(C)C1)C2c1ccc(OCc2ccc(C(=O)O)cc2)c(Br)c1` ?
A. 4.91

---

# Method summary: Plasma kinetics after single oral administration in SD rats (LC-MS/MS)
# Type: in vivo, rat
# Conditions: male, SD, rat, plasma, po, 10 mg/kg, single oral 10 mg/kg, plasma, n = 8, read-out: t1/2z (half-life) (converted)
Recorded endpoint: half-life

Q. What half-life value was documented for this compound, `CC1(C)CC(=O)C2=C(C1)NC1=C(C(=O)CC(C)(C)C1)C2c1ccc(OCc2ccc(C(=O)O)cc2)c(Br)c1` ?
A. ~30.2 h
